Origin of the recorded values: ChEMBL document CHEMBL5291721

target: 5-hydroxytryptamine receptor 2B (Homo sapiens); format: functional, cell-based; further: assay procedure not described here
Sequence (P41595 whole entry): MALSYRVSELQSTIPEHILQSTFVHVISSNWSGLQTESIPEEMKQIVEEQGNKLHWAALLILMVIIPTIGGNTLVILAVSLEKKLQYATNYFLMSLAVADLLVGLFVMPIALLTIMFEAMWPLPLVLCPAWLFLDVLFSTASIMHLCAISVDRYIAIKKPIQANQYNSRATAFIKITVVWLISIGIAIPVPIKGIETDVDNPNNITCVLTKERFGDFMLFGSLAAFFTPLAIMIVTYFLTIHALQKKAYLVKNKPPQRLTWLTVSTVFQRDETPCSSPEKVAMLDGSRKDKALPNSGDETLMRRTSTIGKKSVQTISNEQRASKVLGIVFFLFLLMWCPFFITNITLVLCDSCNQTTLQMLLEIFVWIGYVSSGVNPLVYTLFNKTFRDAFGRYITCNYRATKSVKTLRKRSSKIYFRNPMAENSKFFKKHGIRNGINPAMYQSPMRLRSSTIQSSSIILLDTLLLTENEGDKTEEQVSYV
recorded endpoint: AC50

molecule	AC50
CCN1CCN(C(=O)N[C@@H](C(=O)N[C@@H]2C(=O)N3C(C(=O)O)=C(CSc4nnnn4C)CS[C@H]23)c2ccc(O)cc2)C(=O)C1=O	> 30 µM

The molecule listed as O=C(O[C@H]1C[C@H]2CC[C@@H](C1)[N+]21CCCC1)C(O)(c1ccccc1)c1ccccc1 shows AC50 equal to > 30 µM

get_value(item= O=C(OCC(O)CO)c1ccccc1Nc1ccnc2cc(Cl)ccc12 (stereo not drawn) , readout=AC50) returns > 30 µM

response.value for CC(C)OC(=O)CCC/C=C\C[C@@H]1[C@@H](CC[C@@H](O)CCc2ccccc2)[C@H](O)C[C@@H]1O (field: AC50) = > 30 µM

Entry C=CCC1(C(C)CC)C(=O)NC(=O)NC1=O (stereo not drawn) , AC50 reported as > 10 µM

Per the record, CCC(C(=O)O)c1ccc(N2Cc3ccccc3C2=O)cc1 (stereo not drawn) has AC50 of > 30 µM

Data point: COc1cc2c(N)nc(N3CCN(C(=O)OCC(C)(C)O)CC3)nc2c(OC)c1OC ; AC50 = > 30 µM

molecule Cc1cn([C@H]2C=C[C@@H](CO)O2)c(=O)[nH]c1=O , AC50 observed: > 10 µM

Form: molecule = CC(=O)Nc1ccc(O)cc1 ; AC50 = > 30 µM

Field AC50 (entry COc1ccc2c3c1O[C@H]1[C@@H](O)CC[C@H]4[C@@H](C2)N(C)CC[C@@]341 [DIHYDROCODEINE] ) reads > 30 µM

====

Test system Alpha-1A adrenergic receptor (Homo sapiens, UniProt P35348), AC50 listed for each of the compounds. Further: assay procedure not described here.
The reply should be a number in µM, with the unit left off.

Record excerpt, results attached:
compound	system tested	result unit	AC50
CC(Oc1c(Cl)cccc1Cl)C1=NCCN1 (stereo not given)	Alpha-1A adrenergic receptor (Homo sapiens, UniProt P35348)	µM	0.803
COc1ccccc1N1CCN(CCCNc2cc(=O)n(C)c(=O)n2C)CC1	Alpha-1A adrenergic receptor (Homo sapiens, UniProt P35348)	µM	0.0043
C[C@](N)(Cc1ccc(O)c(O)c1)C(=O)O	Alpha-1A adrenergic receptor (Homo sapiens, UniProt P35348)	µM	7.1
C=CCN1C[C@H](C(=O)N(CCCN(C)C)C(=O)NCC)C[C@@H]2c3cccc4[nH]cc(c34)C[C@H]21	Alpha-1A adrenergic receptor (Homo sapiens, UniProt P35348)	µM	3.62
CCCN1C[C@H](CSC)C[C@@H]2c3cccc4[nH]cc(c34)C[C@H]21 [PERGOLIDE]	Alpha-1A adrenergic receptor (Homo sapiens, UniProt P35348)	µM	1.78

Here is another compound to look at.
Reading of AC50 for CN(C)CCC(c1ccc(Cl)cc1)c1ccccn1 (stereo not given) with Alpha-1A adrenergic receptor (Homo sapiens, UniProt P35348): 7.01

====

Adenosine receptor A3 (Homo sapiens, UniProt P0DMS8) measurements of AC50, listed per entry. Further: assay procedure not described here.
Sequence (P0DMS8 whole entry): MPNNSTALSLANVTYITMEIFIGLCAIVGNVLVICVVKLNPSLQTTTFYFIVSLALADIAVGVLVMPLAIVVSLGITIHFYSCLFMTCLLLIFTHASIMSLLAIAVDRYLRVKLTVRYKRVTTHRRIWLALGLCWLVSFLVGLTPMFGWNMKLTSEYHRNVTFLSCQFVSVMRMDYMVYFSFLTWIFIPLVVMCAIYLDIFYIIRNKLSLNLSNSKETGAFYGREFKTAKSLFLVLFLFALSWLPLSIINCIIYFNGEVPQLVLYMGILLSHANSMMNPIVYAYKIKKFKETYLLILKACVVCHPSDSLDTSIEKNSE

Example results:
molecule	AC50
CC(=O)NCCCS(=O)(=O)O [ACAMPROSATE]	> 30 µM
CCN1CCN(C(=O)N[C@@H](C(=O)N[C@@H]2C(=O)N3C(C(=O)O)=C(CSc4nnnn4C)CS[C@H]23)c2ccc(O)cc2)C(=O)C1=O	> 30 µM
O=C(NCCN1CCOCC1)c1ccc(Cl)cc1 [MOCLOBEMIDE]	> 10 µM
COc1cccc(C2(O)CCCCC2CN(C)C)c1 (stereo not given)	> 30 µM
Nc1nc(N)nc(-c2cc(Cl)ccc2Cl)n1	> 30 µM
C[C@](N)(Cc1ccc(O)c(O)c1)C(=O)O	> 30 µM
COc1ccccc1N1CCN(CCCNc2cc(=O)n(C)c(=O)n2C)CC1	> 30 µM
CCOC(=O)[N-]c1cn(N2CCOCC2)n[o+]1	> 30 µM
Brc1c(NC2=NCCN2)ccc2nccnc12	> 30 µM

Please fill in: AC50 reported for NC(=O)OCC(COC(N)=O)c1ccccc1 [FELBAMATE] = > 10 µM
